meta.source: PubChem BioAssay (NCI)

# assay.procedure: NCI Yeast Anticancer Drug Screen. Data for the rad50 strain (AID 155);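 further: 0% = growth of vehicle-only cultures of the same strain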
# assay.conditions: S. cerevisiae rad50 strain growth inhibition; at 5.0 µM (retest, dose inferred, filed as 0.5); stronger effect = higher value
Compounds without any hit were thinned out: in the full panel of roughly 79,000, 15% have a hit.
Some compounds, each annotated with its measured growth inhibition.

# compound, growth inhibition [%]
measured = [
    ("CN=C1NS(=O)(=O)c2ccccc21", 2),
    ("CC[C@H](CC[C@@H](C)C1CC[C@H]2[C@@H]3CCC4=CC(=O)CC[C@]4(C)[C@H]3CC[C@]12C)C(C)C (stereo partly specified)", -4),
    ("Cc1ccccc1Oc1ccccc1N", 12),
    ("OC(COc1ccc(Cl)cc1)COc1ccc(Cl)cc1", 0),
    ("CN(C)c1ccc(N=Nc2ccc3c4c(cccc24)-c2ccccc2-3)cc1", 26),
    ("Clc1ccc(CSCCc2ccncc2)cc1Cl", -5),
]

----------
Some molecules, each annotated with its measured growth inhibition.
# assay.procedure: NCI Yeast Anticancer Drug Screen. Data for the rad50 strain (AID 155);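 further: 0% = growth of vehicle-only cultures of the same strain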
# assay.conditions: S. cerevisiae rad50 strain growth inhibition; at 50.0 µM (retest, dose inferred, filed as 5.0); stronger effect = higher value
The panel holds about 79,000 compounds, 15% with a hit somewhere; the sample as a whole holds those more often. The source made the active and inactive calls. No stated cut-off is given here; in the data, active means growth inhibition above about 70%; inactive means the rest. Where a SMILES comes first, the peptide text is derived from it. The star is where a group is joined. OSu = O=C1CCC(=O)N1O*; OBn = c1ccc(CO*)cc1; Bn = c1ccc(C*)cc1
readout: growth inhibition

# molecule, readout, result.value
records = [
    ("OC(C(=Nc1ccccc1)c1ccccc1)c1ccccc1 (stereo not drawn)", "growth inhibition", "96% (active)"),
    ("CCOC(=O)Cc1[nH]c(C(=O)c2ccccc2)cc1C(=O)c1ccccc1", "growth inhibition", "87% (active)"),
    ("CCOC(=O)/C(=C/c1ccc(Cl)cc1)N(CC)CC", "growth inhibition", "15% (inactive)"),
    ("N#CC1(C#N)C(C#N)(C#N)C12CCC2", "growth inhibition", "87% (active)"),
    ("COc1ccccc1NC(=O)/C(=C/c1ccccc1)C(C)=O", "growth inhibition", "12% (inactive)"),
    ("O=NNc1ccc(Sc2ccc3ccccc3c2)cn1", "growth inhibition", "41% (inactive)"),
    ("CSCS(=O)C[C@H](CO)NC(=O)/C=C/c1c(C)[nH]c(=O)[nH]c1=O (stereo partly drawn)", "growth inhibition", "98% (active)"),
    ("COc1cc(CSc2ccc(O)cc2)cc(OC)c1OC", "growth inhibition", "34% (inactive)"),
    ("CCC(C)COC(=O)c1ccc([N+](=O)[O-])cc1 (stereo not drawn)", "growth inhibition", "10% (inactive)"),
    ("CN(C)CCCC(=O)OCC[N+](C)(C)C", "growth inhibition", "4% (inactive)"),
    ("CC(C)CC(NC(=O)C(N)CCC(=O)OCc1ccccc1)C(=O)NC(COCc1ccccc1)C(=O)NC(Cc1ccccc1)C(=O)ON1C(=O)CCC1=O (stereo not drawn) (H-E(OBn)LS(Bn)F-OSu; configuration not given here)", "growth inhibition", "66% (inactive)"),
    ("CCCCN(C(=O)c1ccccc1)C1CCC(=O)c2[nH]c3ccccc3c21 (stereo not drawn)", "growth inhibition", "1% (inactive)"),
    ("CCc1cccc(CC)c1N=Nc1c(N)nc(N)[nH]c1=O", "growth inhibition", "-6% (inactive)"),
    ("Oc1cccc(NCSc2ccc(Cl)cc2)c1", "growth inhibition", "95% (active)"),
    ("CCCCCCCCCCCCNCCNCCN", "growth inhibition", "95% (active)"),
    ("O=[N+]([O-])c1ccccc1NC1CCN(CCCC2(c3ccc(F)cc3)OCCO2)CC1", "growth inhibition", "96% (active)"),
    ("CCSc1nc2ccc(N3C(=O)C=CC3=O)cc2s1", "growth inhibition", "100% (active)"),
    ("CC[Si](CC)(CC)c1ccc(CCNCCS)s1", "growth inhibition", "96% (active)"),
    ("O=S1(=O)c2ccccc2C(=NO)c2ccccc21", "growth inhibition", "-9% (inactive)"),
    ("CCN(CC)CCCCNc1ccc(Cl)cc1", "growth inhibition", "12% (inactive)"),
    ("O=c1oc2ccccc2c(O)c1C1=N/C(=N/N=C/c2ccc(Cl)cc2)SC1", "growth inhibition", "97% (active)"),
    ("O=P(N=P(c1ccccc1)(c1ccccc1)c1ccccc1)(c1ccccc1)c1ccccc1", "growth inhibition", "96% (active)"),
    ("OC(CN1CCC(c2ccccc2)CC1)c1ccc(Br)cc1 (stereo not drawn)", "growth inhibition", "74% (active)"),
]
